molecular target: furin, P09958; assay: furin cleavage Z-score vs untreated control; higher = more cleavage, active = 3.5 or more, inactive = 1 or less, 8 variable residues between constant flanks; conditions: 7.5 min;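 further: purified furin at 1:10 enzyme:substrate in 50 mM HEPES pH 7.5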
Sequence (P09958 whole entry): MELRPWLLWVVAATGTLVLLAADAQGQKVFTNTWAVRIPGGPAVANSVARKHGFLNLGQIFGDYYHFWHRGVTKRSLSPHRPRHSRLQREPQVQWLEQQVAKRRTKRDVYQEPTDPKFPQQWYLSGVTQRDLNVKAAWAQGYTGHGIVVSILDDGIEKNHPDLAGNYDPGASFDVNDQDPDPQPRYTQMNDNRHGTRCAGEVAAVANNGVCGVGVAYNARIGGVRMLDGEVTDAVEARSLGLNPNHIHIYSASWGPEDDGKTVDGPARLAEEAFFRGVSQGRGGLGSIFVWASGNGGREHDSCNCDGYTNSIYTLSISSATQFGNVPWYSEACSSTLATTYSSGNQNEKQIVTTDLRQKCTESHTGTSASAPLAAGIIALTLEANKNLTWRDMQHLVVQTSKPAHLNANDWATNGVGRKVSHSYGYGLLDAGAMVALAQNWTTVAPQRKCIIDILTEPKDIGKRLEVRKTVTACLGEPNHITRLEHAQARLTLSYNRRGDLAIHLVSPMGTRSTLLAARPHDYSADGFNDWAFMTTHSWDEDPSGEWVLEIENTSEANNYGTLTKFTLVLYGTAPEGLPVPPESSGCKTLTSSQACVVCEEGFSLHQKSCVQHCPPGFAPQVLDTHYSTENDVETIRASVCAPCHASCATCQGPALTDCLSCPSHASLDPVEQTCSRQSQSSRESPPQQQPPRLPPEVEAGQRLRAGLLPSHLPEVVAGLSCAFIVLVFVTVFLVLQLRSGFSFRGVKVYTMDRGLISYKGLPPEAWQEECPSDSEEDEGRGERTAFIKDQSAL
This is one part of the list. The hit rate among all sequences tested is not known here.
Overview of reported furin cleavage Z-score across a group of sequences:
recorded-metric: furin cleavage Z-score

1. CAFQRRMAGMAGNASASA [FS-1671] | -0.225
2. CARHIRRRRDAGNASASA [FS-1158] | 10.5
3. CARFRRQQWKAGNASASA [FS-2416] | -0.28
4. CARFRRQDIRAGNASASA [FS-2664] | 2.04
5. CADRRRRRRDAGNASASA [FS-647] | 7.06
6. CASRMREDRDAGNASASA [FS-871] | -0.996
7. CASPPVPPPRAGNASASA [HC1321] | 0.641

Each recorded value in this set is attributed to the supplement of paper PMC3545927.
